Form field: pIC50 (one value per entry).
Tested on: A549
Assay: Cytotoxicity against human A549 cells after 72 hrs by MTT assay
Assay type: functional, cell-based
Conditions: A549, 72 h
pIC50: −log10 of the molar value.

Known pIC50 results, listed for orientation:
- smiles.code: "COc1ccc(/C=C/C(=O)NCCc2c[nH]c3ccccc23)cc1OC"
  reported: "< 3.70"
- smiles.code: "COCOc1ccc(/C=C/C(=O)NCCc2c[nH]c3ccccc23)cc1OCOC"
  reported: "< 3.70"
- smiles.code: "COCOc1ccc(/C=C/C(=O)N2CCN(Cc3ccc(Cl)c(Cl)c3)CC2)cc1OCOC"
  reported: 3.97
- smiles.code: "CCOc1ccc(COc2c(OC)cc(/C=C/C(=O)N3CCN(Cc4ccc(Cl)c(Cl)c4)CC3)cc2OC)cc1"
  reported: 4.20
- smiles.code: "COCOc1ccc(/C=C/C(=O)NCCN2CCOCC2)cc1OCOC"
  reported: "< 3.70"
- smiles.code: "O=C(/C=C/c1ccc(O)c(O)c1)N1CCN(Cc2ccc(Cl)c(Cl)c2)CC1"
  reported: "< 3.70"

Can you share its pIC50? I mean this compound: "CCOc1ccc(COc2c(OC)cc(/C=C/C(=O)NCCN3CCOCC3)cc2OC)cc1" < 3.70

// returns reported pIC50 for input "O=C(/C=C/c1ccccc1)N1CCN(Cc2ccc(Cl)c(Cl)c2)CC1" 3.76

What pIC50 value was documented for this compound, "O=C(/C=C/c1ccc(O)c(O)c1)NCCN1CCOCC1" ? < 3.70

Name the recorded pIC50 for "COc1ccc(/C=C/C(=O)NCCN2CCOCC2)cc1OC" . < 3.70

###

pIC50 values for the molecules below.
Experiment: Cytotoxicity against human LS 174T cells after 72 hrs by MTT assay
Format: functional, cell-based
Conditions: LS174T
The scale used: pIC50 is minus the common logarithm of the concentration in molar units.

Worked examples follow.
- smiles.code: "COc1cc(/C=C/C(=O)OCC(=O)Nc2ccc(Cl)cc2)cc(OC)c1OCc1ccc(Cl)c(Cl)c1"
  pIC50: 4.14
- smiles.code: "O=C(/C=C/c1ccccc1)NNC(=O)c1ccccc1O"
  pIC50: 4.70
- smiles.code: "O=C(COC(=O)/C=C/c1ccc(O)c(O)c1)Nc1ccccc1"
  pIC50: 3.93

Now for a further molecule.
Look up pIC50 for this molecule: "O=C(/C=C/C(=O)N1CCN(Cc2ccc(Cl)c(Cl)c2)CC1)c1ccccc1" 4.17

###

Listed here: items and their measured IC50.
Assay: Cytotoxicity against human LS 174T cells after 72 hrs by MTT assay
Format: functional, cell-based
Conditions: LS174T

Guide cases for IC50, answers given:
- smiles.code: "COc1ccc(NC(=O)COC(=O)/C=C/c2cc(OC)c(OCc3ccccc3)c(OC)c2)cc1"
  readout: "IC50"
  reported: "> 200 µM"
- smiles.code: "COCOc1cc(/C=C/C(=O)OCC(=O)NN2CCOCC2)ccc1OCc1ccccc1"
  readout: "IC50"
  reported: "> 200 µM"
- smiles.code: "COCOc1ccc(/C=C/C(=O)N2CCN(Cc3ccc(Cl)c(Cl)c3)CC2)cc1OCOC"
  readout: "IC50"
  reported: "139 µM"

API: the following record is the query input.
IC50 for "COc1ccc(NC(=O)COC(=O)/C=C/c2cc(OC)c(OCc3ccc(Cl)c(Cl)c3)c(OC)c2)cc1" ? > 200 µM
